Test system: TAOK3;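 also: KINOMEscan scanMAX binding as percent activity remaining versus control; lower means stronger binding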
Settings: Compound Concentration (nM):1000
Listed compounds paired with reported Percent Control
Measured endpoint: Percent Control (%)

• COc1ccccc1-c1cc(/C=C2\C(=O)Nc3ncc(Br)cc32)cc(Br)c1O [GW442130X] = 89
• CCS(=O)(=O)c1ccc(OC)c(Nc2ncc(-c3cccc(F)c3)o2)c1 [GW621970X] = 100
• CCc1ccc(Oc2nccc(-c3c(-c4ccc(F)cc4)ncn3C3CCNCC3)n2)cc1 = 95
• Cl.O=C(Nc1ccc(Oc2ccc3[nH]c(NC(=O)c4ccco4)nc3c2)cc1)Nc1cc(C(F)(F)F)ccc1F [GW683134A] = 100
• Nc1ncnc2occ(-c3ccc(NC(=O)Nc4cc(C(F)(F)F)ccc4F)cc3)c12 [GW770249X] = 74
• CN(C)CCNC(=O)Nc1ccc(N(C)c2ccnc(Nc3ccc(CS(C)(=O)=O)cc3)n2)cc1.Cl [GW830900A] = 89
• COc1ccc2cc(-c3c(-c4ccncc4)nc(-c4ccc(S(C)(=O)=O)cc4C)n3C)ccc2c1 = 74
• NS(=O)(=O)c1ccc(N/N=C2\C(=O)Nc3ccc(C(=O)NCCc4c[nH]cn4)cc32)cc1 [GW300660X] = 86
